Target: hTS (Homo sapiens)
Construct: made in house
Sequence (P04818 whole entry): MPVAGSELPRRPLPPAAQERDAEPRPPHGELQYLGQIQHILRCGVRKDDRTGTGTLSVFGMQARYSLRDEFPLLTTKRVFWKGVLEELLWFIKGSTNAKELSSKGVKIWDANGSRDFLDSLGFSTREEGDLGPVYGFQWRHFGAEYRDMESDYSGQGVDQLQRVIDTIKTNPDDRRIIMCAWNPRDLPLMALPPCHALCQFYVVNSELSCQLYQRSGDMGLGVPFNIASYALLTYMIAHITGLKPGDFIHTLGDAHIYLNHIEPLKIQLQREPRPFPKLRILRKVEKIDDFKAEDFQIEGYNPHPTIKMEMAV
Assay: Inhibition of TS-catalyzed reaction (tritium release from [5-3H]dUMP)
Format: biochemical
Settings: 20 µM dUMP, 50 µM meTHF; read-out: IC50 Assessment
READOUT KIND: IC50

Data request: Record request: IC50 value, item COc1ccc2oc3cccc(O)c3c(=O)c2c1
Data returned: > 1000 µM

Data request: Record request: IC50 value, item CC1Oc2c(c3c(c4oc5c(O)c(O)ccc5c(=O)c24)C(C)(C)C(C)O3)C1(C)C (stereo not drawn)
Data returned: > 100 µM

Data request: Record request: IC50 value, item COc1ccc2oc3ccccc3c(=O)c2c1
Data returned: > 1000 µM
